Test system: NCI-H522 lung
Assay: NCI-60 one-dose screen, 48 h (100 = growth as untreated, 0 = no growth, -100 = all killed)
Settings: 10 µM unless noted
This is part of a sample that, as a whole, favours compounds with a hit. Of some 83,000 tested, about 20% had one in any assay.
assay.readout: growth (%)
Numeric answer only, unit % assumed.

// sample CCN1C(=O)C(C)C=C(C)C=C1C (configuration not stated) , its growth was 84.5

// sample Cc1cc(C#Cc2ccc(C(C)(C)C)cc2)ccc1-n1c(/C=C/c2c(Cl)cccc2Cl)nc2ccccc2c1=O , its growth was 105

// sample Cc1cccc(/C=N/n2c(-c3ccc(Cl)cc3)nc3c(Br)cc(Br)cc3c2=O)c1 , its growth was 38.1

// sample CCOC(=O)C1=C(C(=O)OCC)N(c2cc(OC)c(OC)c(OC)c2)C(N)=C(C#N)C1c1cc(=O)[nH]c2ccccc12 (configuration not stated) , its growth was 90.2

// sample CCSc1cnnc2ccccc12 , its growth was 97.8

// sample CCOCCNc1ccc(S(=O)(=O)c2ccc(N)cc2)cc1N , its growth was 96

// sample Cc1csc(N/N=C/c2ccncc2)n1 , its growth was 72.9

----------
Test system: SR leukemia
Test: NCI-60 one-dose screen, 48 h
Conditions: 10 µM unless noted
About 83,000 compounds went through this panel and 20% of them were active in at least one assay; those are over-represented in the sample as a whole. The source made the active and inactive calls. Rule for the calls: active = growth percent below 10; inactive = the rest.
The reply should name one outcome from 1.0 = active, 0.0 = inactive

What was the test verdict on O=C(/C=C/c1ccccc1Br)c1cccc(OCCCCOc2cccc(C(=O)/C=C/c3ccccc3Br)c2)c1 ? 0.0

What was the test verdict on Cc1ccc(NC(=O)c2cc(NCc3cc(O)ccc3O)ccc2O)cc1 ? 0.0

What was the test verdict on NC(=S)N1N=C(c2ccc(Cl)cc2)CC1c1cc2ccccc2[nH]c1=O (centres undefined) ? 0.0

What was the test verdict on COc1cc2ncnc(Nc3ccc(S(=O)(=O)Nc4cc(C)on4)cc3)c2cc1OCCCN1CCN(c2ccc([N+](=O)[O-])cc2)CC1 ? 0.0

What was the test verdict on CCN(CC)CC(=O)Nc1c(C)cc(C(=O)NN)cc1C ? 0.0

What was the test verdict on COc1cccc(NC(=O)OC(C)C)c1 ? 0.0

What was the test verdict on CCCCc1nc(Cl)c(C2CC(c3ccc(S(N)(=O)=O)cc3)=NN2c2cc(Cl)cc(Cl)c2)[nH]1 (centres undefined) ? 1.0

What was the test verdict on CN(C)c1nc(-c2cccs2)n2nc(-c3ccco3)cc2n1 ? 0.0

What was the test verdict on CS(=O)(=O)c1ccc(C(=O)Nc2ccc(Cl)c(-c3ccccn3)c2)c(Cl)c1 ? 1.0

----------
Give growth for every item shown.
Test system: OVCAR-5 ovarian
Assay: NCI-60 one-dose screen, 48 h (100 = growth as untreated, 0 = no growth, -100 = all killed)
Conditions: 10 µM unless noted
About 83,000 compounds went through this panel and 20% of them were active in at least one assay; those are over-represented in the sample as a whole.
Numeric answer only, unit % assumed.

For the molecule COc1cnc2c(c1)C(=O)c1c-2n(CCCN2CCCC2)c(=O)c2cc(Cl)ccc12 , the measured growth on OVCAR-5 ovarian was 64.8

For the molecule Clc1ccc(C2=NN[C@H](c3cn(-c4ccccc4)nc3-c3ccccc3)C2)cc1 , the measured growth on OVCAR-5 ovarian was 83.6

For the molecule Cc1cccc2nc3ccccc3c(Nc3ccc(NS(C)(=O)=O)cc3)c12 , the measured growth on OVCAR-5 ovarian was 62.1

For the molecule CC(C)CCSc1nc(-c2ccc(F)cc2)c(C#N)c(N2CCN(C)CC2)n1 , the measured growth on OVCAR-5 ovarian was 91.3

For the molecule COc1ccc(-n2nc(C(=O)Nc3ccc(F)cc3)nc2-c2cc(OC)c(OC)c(OC)c2)cc1 , the measured growth on OVCAR-5 ovarian was 97.8

For the molecule CC(C)(C)c1nn(-c2ccccc2)c2c1C(=O)CSC(c1ccccc1Cl)N2 (centres undefined) , the measured growth on OVCAR-5 ovarian was 46.8

For the molecule O=C1OCC2=C1C(c1ccccc1)c1cc3c(cc1N2CCO)OCO3 (centres undefined) , the measured growth on OVCAR-5 ovarian was 46.8

For the molecule O=C(NCCN1CCCCC1)n1cc(-c2ccncc2)c(-c2ccc(Cl)c(O)c2)n1 , the measured growth on OVCAR-5 ovarian was 96.5

For the molecule CC(=O)Oc1c(Cl)c(Cl)c(Cl)c(Cl)c1Cl , the measured growth on OVCAR-5 ovarian was 100

For the molecule CC(C)N(C(=S)SSC(=S)N(C(C)C)C(C)C)C(C)C , the measured growth on OVCAR-5 ovarian was 107

For the molecule O=c1nc(-c2ccccc2)c2cc(-c3ccc(N4CCOCC4)cc3)ccc2[nH]1 , the measured growth on OVCAR-5 ovarian was 99.5

For the molecule CC(=O)C1CCC2C3CC(C)=C4CC(O)CCC4(C)C3CCC12C (centres undefined) , the measured growth on OVCAR-5 ovarian was 112

For the molecule CN1C2CCC1/C(=C\c1ccc(F)cc1)C(=O)/C2=C/c1ccc(F)cc1 , the measured growth on OVCAR-5 ovarian was 72.3

For the molecule COc1cnc2c(c1)C(=O)c1c-2n(CCCN2CCN(C)CC2)c(=O)c2cc(Cl)ccc12 , the measured growth on OVCAR-5 ovarian was 77.9

For the molecule O=C(O)c1ccccc1Oc1cc(-c2ccco2)nc(OCCN2CCOCC2)n1 , the measured growth on OVCAR-5 ovarian was 99.6

For the molecule COc1cc(/C=C/c2cc(/C=C/c3ccc(O)c(OC)c3)n(C(=O)Nc3ccc(F)c(Cl)c3)n2)ccc1O , the measured growth on OVCAR-5 ovarian was 0.879

For the molecule Cn1cnc([N+](=O)[O-])c1S(=O)(=O)Oc1ccccc1 , the measured growth on OVCAR-5 ovarian was 103

For the molecule CCOC(=O)C(CCCCC(NC(C)=O)(C(=O)OCC)C(=O)OCC)(NC(C)=O)C(=O)OCC , the measured growth on OVCAR-5 ovarian was 103

For the molecule CS(=O)(=O)c1ccc(C(=O)N/N=C/c2ccccc2Cl)cc1 , the measured growth on OVCAR-5 ovarian was 109

----------
System: UACC-257 melanoma
Test: NCI-60 one-dose screen, 48 h
Conditions: 10 µM unless noted
Description: Cells are grown in 96 well plates and exposed to the test compound for 48 hours. Compounds are tested at a single concentration, which is 10^-5 M for most compounds. The reported endpoint is percent growth (GI% or GIPRCNT), where numbers from 0 - 100% represent growth inhibition, and numbers from -100% - 0 represent cell death. For example, a value of 40 represents 60% growth inhibition. A value of 0 means no net growth occurred over the course of the experiment. […]
Compounds without any hit were thinned out: in the full panel of roughly 83,000, 20% have a hit. Calls of active or inactive are those of the source. How the source made its calls: active means growth percent below 10; inactive means the rest.
The reply should name one outcome from true = active, false = inactive

What was the test verdict on CCN1C(=O)N(CC)C2C1NN=c1s/c(=C\c3ccco3)c(=O)n12 (configuration not stated) ? false

What was the test verdict on C=CCOC(=O)C1=C(C)NC2=C(C(=O)CCC2)C1c1ccc(F)cc1 (configuration not stated) ? false

What was the test verdict on Cc1cc(O)ccc1Sc1ccccc1[N+](=O)[O-] ? false

What was the test verdict on CCN(CC)c1ccc(/C=N/NC(=O)C[N+](C)(C)C)cc1 ? false

What was the test verdict on CN1C(=O)N(C)C2C1NN=c1s/c(=C\c3ccc(C(F)(F)F)cc3)c(=O)n12 (configuration not stated) ? false

What was the test verdict on OC(CCCCCCCCC(O)CN1CCc2ccccc2C1)CN1CCc2ccccc2C1 (configuration not stated) ? false

What was the test verdict on COc1ccc(C(=O)OC2C(OC3C(O)COC(O[C@H]4C[C@H]5[C@@H]6CC=C7C[C@@H](O)CC[C@]7(C)[C@H]6CC[C@]5(C)[C@H]4[C@H](C)C(=O)CCC(C)C)C3OC(N)=O)OCC(O)C2O)cc1 (some centres not stated) ? true

----------
Tested on: T-47D breast
Test: NCI-60 one-dose screen, 48 h (100 = growth as untreated, 0 = no growth, -100 = all killed)
Conditions: 10 µM unless noted
Compounds without any hit were thinned out: in the full panel of roughly 83,000, 20% have a hit.
assay.readout: growth (%)
Numeric answer only, unit % assumed.

// sample OCCN(CCO)c1ccc2ccccc2c1 , its growth was 96.6

// sample O=S1(=O)NCCCN1CCNc1nccc(-c2c(-c3cccc(O)c3)nc3sccn23)n1 , its growth was 78.3

// sample Cc1cc(-c2ccc(N=Nc3c(S(=O)(=O)O)cc4cc(S(=O)(=O)O)cc(O)c4c3O)c(C)c2)ccc1N=Nc1c(S(=O)(=O)O)cc2cc(S(=O)(=O)O)cc(O)c2c1O , its growth was 92.2

// sample O=C1Nc2ccccc2/C1=C\c1nc(C2CCN(S(=O)(=O)c3ccc(F)cc3)CC2)n2ccccc12 , its growth was 48.1

// sample FC(F)(F)c1nn[nH]n1 , its growth was 101

// sample N=C(N)c1ccc(NCCNc2ccc(C(=N)N)cc2)cc1 , its growth was 137

// sample Nc1nc(NC2CC2)cc(-c2cccc(Cl)c2Cl)n1 , its growth was 32.2
